Consider the following molecules and their measured IC50 readings.
TARGET OF ASSAY: hPAD4 (Homo sapiens, UniProt Q9UM07)
Sequence (Q9UM07 whole entry): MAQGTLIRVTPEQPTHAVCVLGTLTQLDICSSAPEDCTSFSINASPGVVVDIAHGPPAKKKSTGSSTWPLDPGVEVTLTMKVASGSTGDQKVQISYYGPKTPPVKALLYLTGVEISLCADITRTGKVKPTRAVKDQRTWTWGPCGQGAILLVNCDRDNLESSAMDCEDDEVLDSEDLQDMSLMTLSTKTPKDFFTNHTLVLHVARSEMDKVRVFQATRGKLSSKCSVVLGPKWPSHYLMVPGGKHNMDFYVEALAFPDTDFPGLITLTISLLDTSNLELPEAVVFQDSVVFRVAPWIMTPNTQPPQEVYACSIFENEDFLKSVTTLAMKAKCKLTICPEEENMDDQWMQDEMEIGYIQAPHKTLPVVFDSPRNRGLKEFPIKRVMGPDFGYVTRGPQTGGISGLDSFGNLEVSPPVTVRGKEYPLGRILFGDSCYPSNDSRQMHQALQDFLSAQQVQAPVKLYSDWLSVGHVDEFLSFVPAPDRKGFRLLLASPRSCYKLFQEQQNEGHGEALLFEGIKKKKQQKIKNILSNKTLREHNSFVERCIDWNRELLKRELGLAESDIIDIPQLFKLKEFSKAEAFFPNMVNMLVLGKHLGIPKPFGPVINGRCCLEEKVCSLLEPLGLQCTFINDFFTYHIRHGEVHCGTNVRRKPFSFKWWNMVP
EXPERIMENT DESCRIPTION: hPAD4 RFMS (RapidFire mass spectrometry) PAD4 inhibition assay
Assay type: biochemical
EXPERIMENTAL SETUP: hPAD4 enzyme, RFMS readout; read-out: hPAD4 RFMS IC50

Previously resolved entries follow.
CCn1c(-c2cc3cccnc3n2CC2CC2)nc2cc(C(=O)N3C[C@@H](N)C[C@H](F)C3)cc(OC)c21 [Compound I-71] :: 1 to 5 µM
COc1cc(C(=O)N2C[C@@H](N)CC[C@@H]2CO)cc2nc(-c3cc4cccnc4n3CC3CC3)n(C)c12 (single isomer, unassigned) [Compound I-227] :: > 10 µM
Cn1c(-c2cc3cccnc3n2CC2CC2)nc2cc(C(=O)N3CC[C@H]4CCN[C@H]4C3)ccc21 [Compound I-10] :: 1 to 5 µM

Now consider a different molecule.
Form field IC50, entry CCn1c(-c2nc3cc(C(=O)N4CCC[C@@H](N)C4)c(F)cc3n2C)cc2cccnc21 [Compound I-171] : 5 to 10 µM

###

TARGET OF ASSAY: hPAD4 (Homo sapiens)
EXPERIMENT DESCRIPTION: hPAD4 RFMS (RapidFire mass spectrometry) PAD4 inhibition assay
Type: biochemical
EXPERIMENTAL SETUP: hPAD4 enzyme, RFMS readout; read-out: hPAD4 RFMS IC50
Consider the following compounds and their measured IC50 readings.

COc1ccc2cc(-c3nc4cc(C(=O)N5C[C@H]6CC[C@@H]5[C@@H]6N)ccc4n3C)n(CC3CC3)c2n1 :: < 1000 nM
CCn1c(-c2cc3ccc(OC)nc3n2CC2CC2)nc2cc(C(=O)N3CCC[C@@H](N)C3)cc(OC)c21 :: < 1000 nM
COc1cc(C(=O)N2CC[C@@H](F)[C@@H](N)C2)cc2nc(-c3cc4cccnc4n3CC3CC3)n(C)c12 :: < 1000 nM
COc1cc(C(=O)N2CC[C@@H]3CCN[C@@H]3C2)cc2nc(-c3cc4cccnc4n3CC3CC3)n(C)c12 :: < 1000 nM

`CCn1c(-c2nc3cc(C(=O)N4CCC[C@@H](N)C4)cc(OC)c3n2CCOC)cc2cccnc21` on hPAD4 (Homo sapiens) gives IC50 = 1000 to 5000 nM

Cn1c(-c2cc3cccnc3n2CC2CC2)nc2cc(C(=O)N3CC(N)CC(F)(F)C3)ccc21 (centres unmarked) on hPAD4 (Homo sapiens) gives IC50 = > 10000 nM

`COc1cc(C(=O)N2C[C@H]3C[C@H](O)[C@@H]2[C@@H]3N)cc2nc(-c3cc4cccnc4n3CC3CC3)n(C)c12` on hPAD4 (Homo sapiens) gives IC50 = < 1000 nM

`COc1cc(C(=O)N2CC[C@@H](OC)[C@@H](N)C2)cc2nc(-c3cc4cccnc4n3CC3CC3)n(C)c12` on hPAD4 (Homo sapiens) gives IC50 = < 1000 nM

`Cn1c(-c2cc3cccnc3n2CC2CC2)nc2cc(C(=O)N3CC[C@@H](F)[C@H](N)C3)ccc21` on hPAD4 (Homo sapiens) gives IC50 = > 10000 nM

COc1cc(C(=O)N2CCC3OCCNC3C2)cc2nc(-c3cc4cccnc4n3CC3CC3)n(C)c12 (racemic) on hPAD4 (Homo sapiens) gives IC50 = 1000 to 5000 nM

`CCn1c(-c2nc3cc(C(=O)N4CCC[C@@H](N)C4)cc(OC)c3n2CC2CC(F)(F)C2)cc2cccnc21` on hPAD4 (Homo sapiens) gives IC50 = 1000 to 5000 nM

###

Consider the following compounds and their measured IC50 readings.
TARGET OF ASSAY: hPAD4 (Homo sapiens, UniProt Q9UM07)
EXPERIMENT DESCRIPTION: hPAD4 RFMS (RapidFire mass spectrometry) PAD4 inhibition assay;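 on hPAD4 RFMS pIC50: grade E means pIC50 at most 4 and F means pIC50 4.0 to 5.0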
Type: biochemical
EXPERIMENTAL SETUP: hPAD4 enzyme, RFMS readout; pIC50=−log(IC50); read-out: hPAD4 RFMS pIC50 (converted)

Previously resolved entries follow.
COc1ccc2cc(-c3nc4cc(C(=O)N5CCC[C@@H](N)C5)cc(OC)c4n3CC(F)F)n(CC3CC3)c2n1 :: < 1 µM
COc1cc(C(=O)N2C[C@H]3CCC2[C@H]3N)cc2nc(-c3cc4cc(/C=C/CC(C)C)ccc4n3CC3CC3)n(C)c12 :: < 1 µM
COc1cc(C(=O)N2C[C@H](N)C[C@@H](F)C2)cc2nc(-c3cc4cccnc4n3CC3CC3)n(C[C@H]3C[C@@](C)(OC)C3)c12 :: < 1 µM
COCCn1c(-c2nc3cc(C(=O)N4C[C@@H](N)CC[C@H]4C)cc(OC)c3n2C)cc2cccnc21 :: 1 to 10 µM
COc1cc(C(=O)N2CC[C@H](OC)[C@H](N)C2)cc2nc(-c3cc4cccnc4n3CC3CC3)n(C)c12 :: 1 to 10 µM

Form field IC50, entry `CCn1c(-c2nc3cc(C(=O)N4CCC[C@@H](N)C4)cc(F)c3n2C)cc2cccnc21` : 1 to 10 µM

###

Consider the following compounds and their measured IC50 readings.
TARGET OF ASSAY: hPAD4 (Homo sapiens)
EXPERIMENT DESCRIPTION: hPAD4 RFMS (RapidFire mass spectrometry) PAD4 inhibition assay
Type: biochemical
EXPERIMENTAL SETUP: hPAD4 enzyme, RFMS readout; read-out: hPAD4 RFMS IC50

CCn1c(-c2nc3cc(C(=O)N4C[C@H]5CC[C@@H]4[C@@H]5N)cc(F)c3n2C)cc2cccnc21 [Compound I-165] :: 1000 to 5000 nM
Cn1c(-c2cc3cccnc3n2CC2CC2)nc2cc(C(=O)N3CCCC4(CCN4)C3)ccc21 (stereo not drawn) [Compound I-42] :: > 10000 nM
COc1cc(C(=O)N2C[C@H](N)C[C@@H](F)C2)cc2nc(-c3cc4ccc(C(F)(F)F)nc4n3CC3CC3)n(C)c12 [Compound I-208] :: < 1000 nM
COCCn1c(-c2cc3cccnc3n2CC2CC2)nc2cc(C(=O)N3C[C@H]4CC[C@@H]3[C@@H]4N)cc(OC)c21 [Compound I-178] :: < 1000 nM
COCCn1c(-c2nc3cc(C(=O)N4C[C@@H](N)CC[C@H]4C)cc(OC)c3n2C)cc2cccnc21 [Compound I-190] :: 1000 to 5000 nM

Form field IC50, entry COc1cc(C(=O)N2C[C@H]3CCC2[C@H]3N)cc2nc(-c3cc4cc(/C=C/CC(C)C)ccc4n3CC3CC3)n(C)c12 [Compound I-358] : < 1000 nM

###

TARGET OF ASSAY: mPAD4 (Mus musculus)
Sequence (Q9Z183 whole entry): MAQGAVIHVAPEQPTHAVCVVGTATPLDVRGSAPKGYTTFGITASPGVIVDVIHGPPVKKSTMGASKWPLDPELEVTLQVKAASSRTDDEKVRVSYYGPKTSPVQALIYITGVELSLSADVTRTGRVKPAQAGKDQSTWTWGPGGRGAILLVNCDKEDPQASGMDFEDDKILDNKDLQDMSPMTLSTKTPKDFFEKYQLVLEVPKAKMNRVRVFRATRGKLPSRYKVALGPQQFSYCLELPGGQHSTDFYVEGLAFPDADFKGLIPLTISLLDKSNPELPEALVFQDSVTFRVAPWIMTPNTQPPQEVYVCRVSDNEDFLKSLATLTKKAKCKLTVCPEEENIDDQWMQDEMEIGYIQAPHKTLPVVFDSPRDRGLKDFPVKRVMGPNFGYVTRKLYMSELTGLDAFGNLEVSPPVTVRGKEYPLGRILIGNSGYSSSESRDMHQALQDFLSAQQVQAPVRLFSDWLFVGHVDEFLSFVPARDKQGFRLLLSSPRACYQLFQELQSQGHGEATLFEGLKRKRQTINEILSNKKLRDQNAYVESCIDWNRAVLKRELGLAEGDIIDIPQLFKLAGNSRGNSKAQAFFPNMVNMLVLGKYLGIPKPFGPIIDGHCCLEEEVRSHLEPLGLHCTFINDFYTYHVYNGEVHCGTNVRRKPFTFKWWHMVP
EXPERIMENT DESCRIPTION: mPAD4 RFMS PAD4 inhibition assay
Type: biochemical
EXPERIMENTAL SETUP: mPAD4, RFMS readout; read-out: mPAD4 RFMS IC50
pIC50: −log10 of the molar value.
ASSAY ENDPOINT: pIC50

Previously resolved entries follow.
COc1ccc2cc(-c3nc4cc(C(=O)N5C[C@H]6CC[C@@H]5[C@@H]6N)cc(OC)c4n3C)n(CC3CC3)c2n1 [Compound I-188] :: > 6.00
COc1cc(C(=O)N2CCC[C@@H](N)C2)cc2nc(-c3cc4ccc(C(F)(F)F)nc4n3CC3CC3)n(C)c12 [Compound I-197] :: > 6.00

Now consider a different compound.
COc1cc(C(=O)N2C[C@H]3CC[C@@H]2[C@@H]3N)cc2nc(-c3cc4cccnc4n3CC3CC3)n(C[C@@H]3CCOC3)c12 [Compound I-232] on mPAD4 (Mus musculus) gives pIC50 = > 6.00

###

Consider the following compounds and their measured IC50 readings.
TARGET OF ASSAY: UniProtKB Q9Z183
EXPERIMENT DESCRIPTION: mPAD4 RFMS PAD4 inhibition assay;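 on mPAD4 RFMS pIC50: grade E means pIC50 at most 4 and F means pIC50 4.0 to 5.0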
Format: biochemical
EXPERIMENTAL SETUP: mPAD4, RFMS readout; pIC50=−log(IC50); read-out: mPAD4 RFMS pIC50 (converted)

Previously resolved entries follow.
CCn1c(-c2nc3cc(C(=O)N4C[C@H]5CC[C@@H]4[C@@H]5N)cc(OC)c3n2C[C@H]2C[C@@](C)(OC)C2)cc2ccc(OC)nc21 [Compound I-206] :: < 1000 nM
COc1cc(C(=O)N2C[C@H]3CC[C@@H]2[C@@H]3N)cc2nc(-c3cc4cccnc4n3CC3CC3)n([C@H]3C[C@@H](F)C3)c12 [Compound I-225] :: < 1000 nM
COc1cc(C(=O)N2C[C@H](N)CC[C@@H]2CO)cc2nc(-c3cc4cccnc4n3CC3CC3)n(C)c12 (racemic) [Compound I-221] :: 1000 to 10000 nM
CCn1c(-c2cc3ccc(OC)nc3n2CC2CC2)nc2cc(C(=O)N3C[C@@H](N)C[C@H](F)C3)cc(OC)c21 [Compound I-92] :: < 1000 nM

Form field IC50, entry CCn1c(-c2nc3cc(C(=O)N4CCC[C@@H](N)C4)ccc3n2CCOC)cc2cccnc21 [Compound I-185] : 10000 to 100000 nM
